Cited source for all entries: the supplement of paper PMC9170038

Provide the reported apparent KD of K4 kissing-loop reporter of each item.
test system: K4 kissing-loop RNA reporter; assay: apparent KD of K4 kissing-loop reporter; higher = weaker reporter binding; conditions: Eterna round: R107; input ligand: theophylline 20 uM;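 also: bound reporter read as fluorescence of individual clusters on recovered sequencing chips by microscopy, with normalized cluster intensities fitted with a binding model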
Record the result as a number with its unit.

I would be grateful if you could share the reported apparent KD of K4 kissing-loop reporter for AAGCAGUCAGGAUCGAAGAUCCUGCAAAACCGAGGACCGGUACGGCCGCCACUCGGAGUGAUGUUCCGAAGACUGCAAAAUAAAA [#SwitchBubble 6] . 150 nM

I would be grateful if you could share the reported apparent KD of K4 kissing-loop reporter for AGCCGAAAGGCGAGUGCUGUCACUCCGGAAGGAGCGGCGAAAACGCCAGGUAGGUCGCCGGAGUGAUGUUCCGGUGCAGCACUCA [Omei KL Arginine A Exc B v2] . 521 nM

I would be grateful if you could share the reported apparent KD of K4 kissing-loop reporter for CUUCGAUUAACAGAUACCAGUCACUUGGGAGCCACACACAAGUGAGUGAUGUUCACUUGUGACCCUUGGCAGCUGUUAGUCGAAG [#04 K4 Theophylline B Exclusion] . 127 nM

I would be grateful if you could share the reported apparent KD of K4 kissing-loop reporter for UGGGCCGCCUGAGGAUAUAGAGACGAGUGAUGUUCGUGGAUAAGAGCCAGUGAUGUUGGGUUAUUUCUAGAAGGCGGGCGAACUU [Exclusion FMN B GF9] . 164 nM

I would be grateful if you could share the reported apparent KD of K4 kissing-loop reporter for AAGUGUCAUUAGACACACCGAUGUAUAAACUAGGAUAUGCUGAUAAGCAGAAGGAGUGAUGUUCCUUUCAUCAUCGGAAUUAAAU [#06 K4 FMN A Exclusion] . 175 nM

I would be grateful if you could share the reported apparent KD of K4 kissing-loop reporter for UCUUUUGGCAUGGAUAGAAUGCCGACCGAUACCAGCAAAGUAGGAUGCCCUUGGCAGCGGAGUGAUGUUCCAUUGUCGCGGUUUG [theeternabot_exclusion_KL_Theo_A_48] . 84.4 nM

====

test system: MS2 coat protein; experiment: apparent KD of MS2 coat protein; designed switch direction (-1 OFF switch, 1 ON switch): -1; higher = weaker reporter binding; conditions: input ligand: FMN 200 uM
Mark not met for apparent KD of MS2 coat protein values under 70 nM, and met for everything at or above.

Dear colleague, could you confirm whether GAAUAGAGAGGAUAUGCGAUGUAGGUAGUACGAUAUAUCUGACAUGAGGAUCACCCAUGUAGAAGGCUCAGAUC [EX2 #6] (Eterna round: R97, puzzle: Exclusion 2) has apparent KD of MS2 coat protein at or above 70 nM? not met

Dear colleague, could you confirm whether GCUGGUCAAGGAUAUGCAAUCGUGCUUCGGCACGUAAGGUCACAUGAGGAUCACCCAUGUAGAAGGUGACCAGC [E2/4-C1] (Eterna round: R97, puzzle: Exclusion 2) has apparent KD of MS2 coat protein at or above 70 nM? not met

Dear colleague, could you confirm whether ACACUUGAACAUGAGGAUCACCCAUGUGUUUUUCUGGUUCGGCAGGAUAUCGUCUAACGCCAGGGCGAGAAGGGCCAAUAAAAG [Inlale] (Eterna round: R96, puzzle: Exclusion NG 3) has apparent KD of MS2 coat protein at or above 70 nM? not met

Dear colleague, could you confirm whether AAGAACGGUAAGGAUAUCCAUGUGAAAUAAAGAGGAGAAGGUACCACAUGAGGAUCACCCAUGUGGCUCUCAAA [EX6 B.30] (Eterna round: R97, puzzle: Exclusion 6) has apparent KD of MS2 coat protein at or above 70 nM? not met

Dear colleague, could you confirm whether UACAUGAGGAUCACCCAUGUUUUGUCGUGUAUGGUAUUUAUCUAGGAUAUCAAUCUAAUUAUUUAUGAGAAGGAGAAUAUUAAU [JMF's solution 50] (Eterna round: R96, puzzle: Exclusion NG 3) has apparent KD of MS2 coat protein at or above 70 nM? not met

Dear colleague, could you confirm whether CUUAGGUGAGGAUAUUAGUAGUAAAUAAAUAAAAUUAUUACUGAGAAGGCACAUGAGGAUCACCCAUGUUCCUC [Salish 062 v3] (Eterna round: R97, puzzle: Exclusion 4) has apparent KD of MS2 coat protein at or above 70 nM? met

Dear colleague, could you confirm whether UGCUGAGUUGACAGUGGUAACAUGAGGAUCACCCAUGUAUGUUUGUGCUUAAGCGGGUUGUUUCUUGUUCGUCUCUC [Eternabot (L2) Solution 5] (Eterna round: R97, puzzle: Sensor, turn-off variant 1) has apparent KD of MS2 coat protein at or above 70 nM? met

Dear colleague, could you confirm whether UCAUGUCCUGAGGAUAUGUAGCGGAUAAACGCAACAGAAGGCAGGACAUGAGGAUCACCCAUGUGUGCCUUCCA [Exclusion 6 Mod of JL of Mod of Letion by ViennaUCT] (Eterna round: R97, puzzle: Exclusion 6) has apparent KD of MS2 coat protein at or above 70 nM? not met

Dear colleague, could you confirm whether CCCGGGCUUGUGAGGAUAUGCGCGCGGAAAUGUGUGUAGAAGGCACAUGAGGAUCACCCAUGUAAGGGCCCGGG [-32.4, -30.4 kcal, A 23%, 6-0] (Eterna round: R97, puzzle: Brourd's mod of Exclusion 4) has apparent KD of MS2 coat protein at or above 70 nM? not met

Dear colleague, could you confirm whether GCGCACCUACCAAAAGGUAGGUCAACAUGAGGAUCACCCAUGUAGGAUAUCGAUUGCUUUGCAGUCGAGAAGGACAUGAUGCGC [JL ENG3 3.80 Mod 13] (Eterna round: R96, puzzle: Exclusion NG 3) has apparent KD of MS2 coat protein at or above 70 nM? met

Dear colleague, could you confirm whether UCGAUGUGAGGAUAUAACAGGACGAACUCUUAAUAGUACGGUUAGAAGGCACAUGAGGAUCACCCAUGUGACGA [EX4 B.27] (Eterna round: R97, puzzle: Exclusion 4) has apparent KD of MS2 coat protein at or above 70 nM? not met

Dear colleague, could you confirm whether ACUAAACAUGUAGGAUAUGCGUGGCGAAGCUAUGCAGAAGGACAUGAGGAUCACCCAUGUUUUAGCGUCUGCGUACAGAUGCGU [JL ENG1 1.44] (Eterna round: R96, puzzle: Exclusion NG 1) has apparent KD of MS2 coat protein at or above 70 nM? met

Dear colleague, could you confirm whether ACAUGAGGAUCACCCAUGUGGGUUCUCCAGCAUAAUAAGAGGUAGGAUAUGCAGUCGCCGAAGGAGCAGAAGGACCGCGUUUAU [Eternabot solution 50] (Eterna round: R96, puzzle: Exclusion NG 3) has apparent KD of MS2 coat protein at or above 70 nM? not met

Dear colleague, could you confirm whether AAAUAGCGAGGAUAUACUCCAAUAGCAAAUAUUCCCAUGGCACAUGAGGAUCACCCAUGUAGAAGGCGCAGUAA (Eterna round: R97, puzzle: Exclusion 2) has apparent KD of MS2 coat protein at or above 70 nM? not met

Dear colleague, could you confirm whether UUUAGUUUAGGAUAUGUAGACAUUAACAUGAGGAUCACCCAUGUAGAUCCUGAAUUGGCUACAGAAGGAAGCAUUU [Mod of Brourd 11 - Jieux - Exclusion 5] (Eterna round: R97, puzzle: Exclusion 5) has apparent KD of MS2 coat protein at or above 70 nM? met

Dear colleague, could you confirm whether GGGCUGUCAGGAUAUGGGCCCGGGCCCGAAAGGGCCCGGGCCCAGAAGGGACAUGAGGAUCACCCAUGUGGCCC [-51.3, -50.3 kcal, A 22%] (Eterna round: R97, puzzle: Exclusion 4) has apparent KD of MS2 coat protein at or above 70 nM? not met

Dear colleague, could you confirm whether AAUUUUGGAGGAUAUACAUCCCAGGAUCCAGUAAUUAAGUUACAUGAGGAUCACCCAUGUAGAAGGUCAAGAGU [Eternabot (L1) Solution 75] (Eterna round: R97, puzzle: Exclusion 2) has apparent KD of MS2 coat protein at or above 70 nM? not met

====

Provide the reported apparent KD of MS2 coat protein of each item.
system: MS2 coat protein; experiment: apparent KD of MS2 coat protein; higher = weaker reporter binding; conditions: Eterna round: R101; input ligand: none
Record the result as a number with its unit.

I would be grateful if you could share the reported apparent KD of MS2 coat protein for UAAUAUAUAUAGAAGGACAUGAGGAUCACCCAUGUCGCCGGGCCCGGGAAACCGGGCCCGGCCAUGUAGGAUAUAUAUAUAUUA [#This is a good prank 10] (puzzle (switch architecture): Inverted Exclusion NG 2) . 4.9 nM

I would be grateful if you could share the reported apparent KD of MS2 coat protein for AGGAGAAAUGUAGGAUAUGGGCGGGCGGACGGGCAAAGCGCGUCCGCCCGCCCAGAAGGACAUGAGGAUCACCCAUGUUUCCCU [Wow, my 5th design!] (puzzle (switch architecture): Small Loop Exclusion NG 1) . 12.2 nM

I would be grateful if you could share the reported apparent KD of MS2 coat protein for GGUGCACGCACAGGAUAUCCGGCGAAGCUCGUCGGAGAAGGGUGACAUGAGGAUCACCCAUGUACGUGCAGCCAAGUUUGAGAG [Laaar] (puzzle (switch architecture): Same State NG 1) . 26.8 nM

I would be grateful if you could share the reported apparent KD of MS2 coat protein for ACACGUCGUGAGAAGGAGGAUCACCCUUUCGAAAGAAAGAGCCACCGUGAAAACGGUGGCAAAUUCUAGGAUAUCACGACGUGA [#SharedSequence - IExNG2: 2] (puzzle (switch architecture): Inverted Exclusion NG 2) . 230 nM
